Reported values of hRXFP1/CHO-K1 cAMP EC50 (nM, avg) for individual entries
Biological target: T1, human RXFP1 receptor (human, UniProt Q9HBX9 1-757)
T1 sequence (looked up): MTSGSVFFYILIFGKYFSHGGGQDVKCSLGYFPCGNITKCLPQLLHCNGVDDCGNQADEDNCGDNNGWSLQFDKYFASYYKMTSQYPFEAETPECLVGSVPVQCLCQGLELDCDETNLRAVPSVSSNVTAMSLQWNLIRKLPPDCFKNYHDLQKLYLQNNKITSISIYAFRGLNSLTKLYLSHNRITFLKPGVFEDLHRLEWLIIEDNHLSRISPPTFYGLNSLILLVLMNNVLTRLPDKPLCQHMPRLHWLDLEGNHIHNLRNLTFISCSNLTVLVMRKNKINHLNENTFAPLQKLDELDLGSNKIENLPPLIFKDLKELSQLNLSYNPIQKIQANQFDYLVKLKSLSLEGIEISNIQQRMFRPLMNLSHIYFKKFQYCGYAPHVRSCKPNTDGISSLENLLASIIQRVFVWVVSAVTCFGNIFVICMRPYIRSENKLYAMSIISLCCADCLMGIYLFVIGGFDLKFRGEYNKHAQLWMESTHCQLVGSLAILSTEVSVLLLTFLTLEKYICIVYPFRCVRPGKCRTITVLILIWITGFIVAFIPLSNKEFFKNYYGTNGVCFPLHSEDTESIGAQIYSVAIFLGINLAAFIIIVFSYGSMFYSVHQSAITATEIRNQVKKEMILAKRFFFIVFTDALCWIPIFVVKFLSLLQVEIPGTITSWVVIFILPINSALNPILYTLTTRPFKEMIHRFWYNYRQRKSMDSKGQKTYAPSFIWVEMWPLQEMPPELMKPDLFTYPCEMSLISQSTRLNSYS
Experiment: cell-based or functional assay
Give a bare numeral; the unit nM is implied.

The following binders have reported results that may help.
[[record]]
binder = "AQ1-Glu-C13-COOH (ligand, not fully specified; pAcF (para-acetyl-L-phenylalanine) at position 1, oxime-linked to PK enhancer Glu-C13-COOH) chain 1: XLYSALANKCCHVGCTKRSLARFC chain 2: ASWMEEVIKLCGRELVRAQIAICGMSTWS"
assay_metric = "hRXFP1/CHO-K1 cAMP EC50 (nM, avg)"
unit_tag = "nM"
numeric_value = 0.18

[[record]]
binder = "AQ1-GSPGSP-Glu^γ-C14-COOH (ligand, not fully specified; Glu^γ bonded by amide to fatty acid -C14-COOH; oxime-linked to pAcF of the A chain; pAcF (para-acetyl-L-phenylalanine) at position 1, oxime-linked to PK enhancer GSPGSP-Glu^γ-C14-COOH) chain 1: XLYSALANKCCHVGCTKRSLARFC chain 2: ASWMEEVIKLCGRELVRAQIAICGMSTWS peptide: GSPGSPE"
assay_metric = "hRXFP1/CHO-K1 cAMP EC50 (nM, avg)"
unit_tag = "nM"
numeric_value = 0.29

[[record]]
binder = "AQ1-KKSGGSGG-Glu^α-C13-COOH (ligand, not fully specified; Glu^α linked to fatty acid -C13-COOH; oxime-linked to pAcF of the A chain; pAcF (para-acetyl-L-phenylalanine) at position 1, oxime-linked to PK enhancer KKSGGSGG-Glu^α-C13-COOH) chain 1: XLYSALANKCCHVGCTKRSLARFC chain 2: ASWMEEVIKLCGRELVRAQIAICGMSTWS peptide: KKSGGSGGE"
assay_metric = "hRXFP1/CHO-K1 cAMP EC50 (nM, avg)"
unit_tag = "nM"
numeric_value = 0.27

[[record]]
binder = "AQ1-PEG36-Glu-C13-CH3 (ligand, not fully specified; pAcF (para-acetyl-L-phenylalanine) at position 1, oxime-linked to PK enhancer PEG36-Glu-C13-CH3) chain 1: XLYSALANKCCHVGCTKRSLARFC chain 2: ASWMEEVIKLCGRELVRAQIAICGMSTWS"
assay_metric = "hRXFP1/CHO-K1 cAMP EC50 (nM, avg)"
unit_tag = "nM"
numeric_value = 0.15


Find the recorded hRXFP1/CHO-K1 cAMP EC50 (nM, avg) belonging to AQ1-EGGGP-Glu^γ-C14-COOH (ligand, not fully specified; Glu^γ bonded by amide to fatty acid -C14-COOH; oxime-linked to pAcF of the A chain; pAcF (para-acetyl-L-phenylalanine) at position 1, oxime-linked to PK enhancer EGGGP-Glu^γ-C14-COOH) chain 1: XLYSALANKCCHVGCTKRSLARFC chain 2: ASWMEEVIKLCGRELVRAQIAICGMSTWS peptide: EGGGPE and report it.
0.44

Now consider AQ1-KGGGSE-Glu^γ-C14-COOH (ligand, not fully specified; Glu^γ bonded by amide to fatty acid -C14-COOH; oxime-linked to pAcF of the A chain; pAcF (para-acetyl-L-phenylalanine) at position 1, oxime-linked to PK enhancer KGGGSE-Glu^γ-C14-COOH) chain 1: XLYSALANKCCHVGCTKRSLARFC chain 2: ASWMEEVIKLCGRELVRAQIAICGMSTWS peptide: KGGGSEE .
0.37

Now consider AQ1-KGPGSE-Glu^γ-C14-COOH (ligand, not fully specified; Glu^γ bonded by amide to fatty acid -C14-COOH; oxime-linked to pAcF of the A chain; pAcF (para-acetyl-L-phenylalanine) at position 1, oxime-linked to PK enhancer KGPGSE-Glu^γ-C14-COOH) chain 1: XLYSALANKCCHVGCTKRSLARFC chain 2: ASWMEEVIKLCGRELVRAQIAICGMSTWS peptide: KGPGSEE .
0.6

Now consider AQ1-Glu-C13-CH3 (ligand, not fully specified; pAcF (para-acetyl-L-phenylalanine) at position 1, oxime-linked to PK enhancer Glu-C13-CH3) chain 1: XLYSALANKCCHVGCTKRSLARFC chain 2: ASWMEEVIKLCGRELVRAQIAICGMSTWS .
0.95
